# Test target: human adenosine A1 receptor (Homo sapiens, UniProt P30542)
# Sequence (P30542 1-326): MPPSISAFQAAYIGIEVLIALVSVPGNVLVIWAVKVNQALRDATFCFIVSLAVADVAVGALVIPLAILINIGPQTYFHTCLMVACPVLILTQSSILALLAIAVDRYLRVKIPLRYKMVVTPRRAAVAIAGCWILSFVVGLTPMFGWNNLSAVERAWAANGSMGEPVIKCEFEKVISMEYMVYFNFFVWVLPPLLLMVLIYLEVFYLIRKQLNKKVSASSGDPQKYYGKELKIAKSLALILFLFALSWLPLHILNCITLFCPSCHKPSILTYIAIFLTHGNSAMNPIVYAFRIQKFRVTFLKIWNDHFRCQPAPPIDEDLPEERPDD
# Test description: Adenosine A1 Receptor Functional Assay (A1GAL2)
# Condition set: CHO-K1 cells, cAMP inducible beta-galactosidase reporter, 4 nM r-PIA/1 uM Forskolin agonist challenge
pKi: −log10 of the molar value.
Measured endpoint: pKi

Form entry - test system: human adenosine A1 receptor (Homo sapiens, UniProt P30542); read-out: pKi; compound: N#Cc1cccc(-c2nc(N)c3cc(Cc4cccnc4)sc3n2)n1 [Example 21]
7.55

Record Nc1nc(-c2ccc(C(F)F)o2)nc2sc(C(O)c3ncccc3F)cc12 (centres unmarked) [Example 23] : what is its pKi with human adenosine A1 receptor (Homo sapiens, UniProt P30542)?
7.23

P = Cc1ccc(-c2nc(N)c3cc(Cc4ccccn4)sc3n2)o1 [Example 16]
Q = Nc1nc(-c2ccc(C(F)F)o2)nc2sc(Cc3ncccc3F)cc12 [Example 24]
Which of the two items, P and Q , has the greater recorded pKi? // return label of chosen record
P

----------
# Test target: human adenosine A2a receptor (Homo sapiens)
# Sequence (P29274 whole entry): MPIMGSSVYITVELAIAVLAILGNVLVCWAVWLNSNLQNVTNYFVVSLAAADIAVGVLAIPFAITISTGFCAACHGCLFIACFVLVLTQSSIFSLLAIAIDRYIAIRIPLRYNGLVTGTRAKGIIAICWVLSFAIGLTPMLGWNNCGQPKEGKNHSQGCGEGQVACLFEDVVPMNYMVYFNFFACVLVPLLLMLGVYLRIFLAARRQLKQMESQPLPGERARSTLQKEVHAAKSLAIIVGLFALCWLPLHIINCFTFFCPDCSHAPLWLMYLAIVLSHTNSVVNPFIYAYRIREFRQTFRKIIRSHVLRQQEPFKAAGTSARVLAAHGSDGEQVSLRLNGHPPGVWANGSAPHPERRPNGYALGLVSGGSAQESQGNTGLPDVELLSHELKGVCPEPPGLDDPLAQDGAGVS
# Test description: Adenosine A2a Receptor Functional Assay (A2AGAL2)
# Condition set: CHO-K1 cells, cAMP inducible beta-galactosidase reporter, 15 nM NECA agonist challenge
pKi: −log10 of the molar value. Where a name gives a salt, the structure may show the parent alone.
Measured endpoint: pKi

For orientation, consider the following solved cases.
Name the reported pKi value associated with the compound Nc1nc(-c2ccc(C(F)F)o2)nc2sc(C(O)c3ncccc3O)cc12 (stereo not drawn)
8.37

Tell me the measured pKi of N#Cc1cccc(-c2nc(N)c3cc(Cc4cccnc4)sc3n2)n1 , please.
8.28

GET /values?readout=pKi&item= COc1cccnc1Cc1cc2c(N)nc(-c3ccc(C(F)F)o3)nc2s1
8.64

Any idea what its pKi is? The compound is Nc1nc(-c2ccc(C(F)F)o2)nc2sc(C(O)c3ccccn3)cc12 (stereo not drawn)
8.32

P = CC(O)(c1ccccn1)c1cc2c(N)nc(-c3ccc(C(F)F)o3)nc2s1 (stereo not drawn)
Q = Nc1nc(-c2ccc(C3CC3)o2)nc2sc(Cc3ccccn3)cc12 [Example 20, hydrochloride]
R = Nc1nc(-c2ccc(C(F)F)o2)nc2sc(Cc3ncccc3F)cc12
hey, can you rank those compounds up there by pKi? biggest number first please # list labels per requested ordering
R, P, Q

I = Nc1nc(-c2ccc(C(F)F)o2)nc2sc(Cc3ncccc3Br)cc12
II = Nc1nc(-c2cnco2)nc2sc(Cc3ccccn3)cc12
Pick one: I or II . Which one has the lower reported pKi? Your answer should be the label attached to the chosen record.
II
(II: 8.01, I: 8.66)

----------
# Test target: human adenosine A1 receptor (Homo sapiens, UniProt P30542)
# Test description: Adenosine A1 Receptor Functional Assay (A1GAL2)
# Condition set: CHO-K1 cells, cAMP inducible beta-galactosidase reporter, 4 nM r-PIA/1 uM Forskolin agonist challenge
Where a name gives a salt, the structure may show the parent alone.
Measured endpoint: Ki (nM)

Look at this compound and give its reported Ki. Nc1nc(-c2ncco2)nc2sc(Cc3cccnc3)cc12
489

Recorded Ki of Nc1nc(-c2ncco2)nc2sc(Cc3ccccn3)cc12 [Example 3, hydrochloride] , please.
353

// returns reported Ki for input Nc1nc(-c2ccc(C3CC3)o2)nc2sc(Cc3ccccn3)cc12 [Example 20, hydrochloride]
337

a = Nc1nc(-c2ccc(C(F)F)o2)nc2sc(C(O)c3ccccn3)cc12 (stereo not shown)
b = CC(O)(c1ccccn1)c1cc2c(N)nc(-c3ccc(C(F)F)o3)nc2s1 (stereo not shown)
c = Nc1nc(-c2ccc(C(F)F)o2)nc2sc(C(O)c3ncccc3Br)cc12 (stereo not shown)
With regard to Ki, arrange the entries in ascending order, please. // respond by listing labels in the order requested
c, a, b

P = Nc1nc(-c2cnco2)nc2sc(Cc3ccccn3)cc12
Q = CC(O)(c1cc2c(N)nc(-c3ccc(C(F)F)o3)nc2s1)c1ncccc1F (stereo not shown)
R = Nc1nc(-c2ccc(C(F)F)o2)nc2sc(Cc3ncccc3Br)cc12
Put these in order: smallest Ki first, largest last. // ordering of labels required in reply
R, P, Q

----------
# Test target: UniProtKB P30542
# Test description: Adenosine A1 Receptor Functional Assay (A1GAL2)
# Condition set: CHO-K1 cells, cAMP inducible beta-galactosidase reporter, 4 nM r-PIA/1 uM Forskolin agonist challenge
pKi: −log10 of the molar value.
Measured endpoint: pKi

Past entries and their recorded results:
Would you kindly share the measured pKi for Nc1nc(-c2ccc(C(F)F)o2)nc2sc(C(=O)c3ncccc3F)cc12 ?
6.08

What measured pKi goes with Nc1nc(-c2ccc(C(F)F)o2)nc2sc(C(O)c3ncccc3O)cc12 (stereo not shown) ?
6.96

So what does the record say about pKi for COc1cccnc1Cc1cc2c(N)nc(-c3ccc(C(F)F)o3)nc2s1 ?
7.49

A = Nc1nc(-c2ccc(C(F)F)o2)nc2sc(Cc3ccccn3)cc12
B = COc1cccnc1C(O)c1cc2c(N)nc(-c3ccc(C(F)F)o3)nc2s1 (stereo not shown)
# return whichever of A and B has the smaller pKi Write down the label of the entry you select.
A
(A: 7.21, B: 7.60)

A = Nc1nc(-c2ccc(C3CC3)o2)nc2sc(Cc3cccnc3)cc12
B = Cc1csc(-c2nc(N)c3cc(Cc4ccccn4)sc3n2)n1
Param pair: A , B . Output: the one whose pKi is numerically greater. Pick one and reply with its label.
B
